# credit: patent US20230339937A1

Exercise: for every item that follows, state its recorded IC50.
- target of assay: Recombinant human H-PGDS (Homo sapiens, UniProt O60760)
- Sequence (O60760 whole entry): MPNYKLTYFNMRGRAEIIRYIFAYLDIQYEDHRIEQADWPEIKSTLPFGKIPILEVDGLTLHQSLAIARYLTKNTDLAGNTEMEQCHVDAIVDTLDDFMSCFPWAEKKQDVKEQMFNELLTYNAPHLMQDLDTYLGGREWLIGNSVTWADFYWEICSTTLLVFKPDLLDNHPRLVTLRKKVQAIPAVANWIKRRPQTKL
- protocol description: H-PGDS inhibitory activity (prostaglandin D2 production from prostaglandin H2, measured by LC-MS/MS)
- assay context: recombinant human H-PGDS 1.0 nM expressed in E. coli; prostaglandin H2 25 μM; preincubated 15 minutes on ice, reacted on ice for 1 minute; concentration that inhibits prostaglandin D2 production by 50%
Answers are plain numbers, in nM.

Cc1cc2occc2c(-c2ccc(C(=O)N[C@H]3CCN(c4ncccn4)C3)cc2)n1 :: 1.6
O=C(N[C@@H]1CCC[C@H](O)CC1)c1ccc(-c2nccc3occc23)cc1 (relative stereo) :: 1.6

// below: IC50 requested for another compound
Enquiry: Provide only the value of recorded IC50 for CCn1nnnc1N1CC[C@H](NC(=O)c2ccc(-c3nccc4occc34)cc2)C1
Return: 2
